- Test system: H1650 cells
- assay text: CellTiterGlo (CTG) cell viability, 3D, 120 h, H1650 (Example 8)
- Format: cell-based, human
- condition set: Homo sapiens, NCI-H1650, H1650 3D, experiment n1, read-out: H1650 3D CTG IC50 n1
pIC50: −log10 of the molar value.
experimental endpoint: pIC50

COCCCNCCCC12CC3(C)CC(C)(C1)CC(Cn1ncc(-c4ccc(N5CCCc6c5nnc(Nc5nc7ccccc7s5)c6C)nc4C(=O)O)c1C)(C3)C2 : 8.71
Cc1c(Nc2nc3ccccc3s2)nnc2c1CCCN2c1ccc(-c2cnn(CC34CC5(C)CC(C)(CC(CCCNCC(=O)O)(C5)C3)C4)c2C)c(C(=O)O)n1 : 7.42
Cc1c(Nc2nc3ccccc3s2)nnc2c1CCCN2c1ccc(-c2cnn(CC34CC5(C)CC(C)(C3)CC(OCCN3CCCCC3)(C5)C4)c2C)c(C(=O)O)n1 : 9.72
Cc1c(Nc2nc3ccccc3s2)nnc2c1CCCN2c1nc(C(=O)O)c(CCCOc2ccc(C#CCNCCN(C)C)cc2F)s1 : 9.02

(I) COCCCN(C)CCCC12CC3(C)CC(C)(C1)CC(Cn1ncc(-c4ccc(N5CCCc6c5nnc(Nc5nc7ccccc7s5)c6C)nc4C(=O)O)c1C)(C3)C2
(II) Cc1c(Nc2nc3ccccc3s2)nnc2c1CCCN2c1ccc(-c2cnn(CC34CC5(C)CC(C)(C3)CC(OCCN3CCCC3)(C5)C4)c2C)c(CO)n1
Task: Could you please tell me which of these two has the higher pIC50: I or II ? Respond with the label that goes with your answer.
Result: I

----------
- Tested on: H1650 cells
- assay text: CellTiterGlo (CTG) cell viability, 3D, 120 h, H1650 (Example 8)
- Assay type: cell-based, human
- condition set: Homo sapiens, NCI-H1650, H1650 3D, mean of n1 and n2, read-out: H1650 3D CTG IC50 Mean of n1 and n2
pIC50: −log10 of the molar value.
experimental endpoint: pIC50

Cc1c(Nc2nc3ccccc3s2)nnc2c1CCCN2c1ccc(-c2cnn(CC34CC5(C)CC(C)(CC(CCCNCC[C@H](O)CO)(C5)C3)C4)c2C)c(C(=O)O)n1 : 8.33
Cc1c(Nc2nc3ccccc3s2)nnc2c1CCCN2c1ccc(-c2cnn(CC34CC5(C)CC(C)(C3)CC(OCCN3CCCC3)(C5)C4)c2C)c(C(=O)N2CCCC2)n1 : 8.71
COCCCNCCCC12CC3(C)CC(C)(C1)CC(Cn1ncc(-c4ccc(N5CCCc6c5nnc(Nc5nc7ccccc7s5)c6C)nc4C(=O)O)c1C)(C3)C2 : 8.62

(A) Cc1c(Nc2nc3ccccc3s2)nnc2c1CCCN2c1ccc(-c2cnn(CC34CC5(C)CC(C)(CC(CCCN(C)CCCC(=O)O)(C5)C3)C4)c2C)c(C(=O)O)n1
(B) Cc1c(Nc2nc3ccccc3s2)nnc2c1CCCN2c1ccc(-c2cnn(C[C@]34C[C@]5(C)C[C@](C)(C3)C[C@@](OCCNC(CO)CO)(C5)C4)c2C)c(C(=O)O)n1
(C) Cc1c(Nc2nc3ccccc3s2)nnc2c1CCCN2c1nc(C(=O)O)c(CCCOc2ccc(C#CCN3CCNCC3)cc2F)s1
Task: Please rank these compounds by pIC50 in descending order. Reply format: the labels, ordered as requested.
Result: B, C, A

----------
- Tested on: H1650 cells
- assay text: CellTiterGlo (CTG) cell viability, 3D, 120 h, H1650 (Example 8)
- Type: cell-based, human
- condition set: H1650 3D, mean of n1 and n2, read-out: H1650 3D CTG IC50 Mean of n1 and n2
experimental endpoint: IC50 (nM)
// return numeric value only (unit: nM, not printed)

CC(=O)CCCC[C@](C)(CC(=O)[C@@](C)(CC(=O)CCCCCC1C(=O)CC(C)C1=O)C(C)C)C(=O)Cc1ccc(CC(C)(C)CC#Cc2ccc(CCCCC3=C(C(C)=O)C=C(C4CCCc5c4ccc(CC4=Cc6ccccc6C4)c5C)C3)cc2)cc1 (some centres unmarked) [Ab C - L9A-P28] : 0.21

Alright, here's another compound for you.
Task: Given the compound CC[N+](CC)(CC#Cc1ccc(OCCCc2sc(N3CCCc4c3nnc(Nc3nc5ccccc5s3)c4C)nc2C(=O)[O-])c(F)c1)Cc1ccc(NC(=O)[C@H](CCCNC(N)=O)NC(=O)[C@@H](NC(=O)CCOCCN2C(=O)CC(C)C2=O)C(C)C)cc1 (some centres unmarked) [Ab C - L9A-P14] , what is its reported IC50?
Result: 0.85

Hey, just so you know, these numbers are from patent US20240269304A1.
